Where do these numbers come from? They come from ChEMBL document CHEMBL1146375.

# Test system: Trichophyton benhamiae
# measurement-protocol: Antifungal activity against Trichophyton mentagrophytes MUCC 665 after 48 hrs by disc diffusion method
# Assay type: functional, Arthroderma benhamiae
Residues, ends and D or L forms follow the SMILES beside them. *: point of attachment. X4 = Cc1cc2nc(-c3ccc(C(=O)*)cc3)[nH]c2cc1C
Examples of compounds with documented inhibition zone (IZ) follow.
// note: answer is a bare numeric in mm

compound | inhibition zone (IZ) / mm
COC(=O)[C@H](Cc1cnc[nH]1)NC(=O)c1cc(I)c(-c2nc3cc(C)c(C)cc3[nH]2)c(I)c1 | 12
COC(=O)[C@H](Cc1ccc(O)cc1)NC(=O)[C@H](Cc1cnc[nH]1)NC(=O)c1ccc(-c2nc3cc(C)c(C)cc3[nH]2)cc1 | 13
O=C(O)CNC(=O)CNC(=O)c1cc(-c2nc3ccc([N+](=O)[O-])cc3[nH]2)ccc1O | 16
Cc1cc2nc(-c3c(I)cc(C(=O)N[C@@H](Cc4cnc[nH]4)C(=O)N4CCC[C@H]4C(=O)O)cc3I)[nH]c2cc1C | 13
CC[C@H](C)[C@H](NC(=O)CNC(=O)[C@H](Cc1c[nH]c2ccccc12)NC(=O)c1ccc(-c2nc3cc(C)c(C)cc3[nH]2)cc1)C(=O)N[C@@H](C)C(=O)OC (X4-WGIA-OMe) | 9
COC(=O)[C@H](CCCNC(=N)N[N+](=O)[O-])NC(=O)[C@@H]1CCCN1C(=O)c1cc(I)c(-c2nc3cc(C)c(C)cc3[nH]2)c(I)c1 | 12
CC[C@H](C)[C@H](NC(=O)[C@H](CC(C)C)NC(=O)c1cc(-c2nc3cc(C)c(C)cc3[nH]2)ccc1O)C(=O)OC | 13

// inhibition zone (IZ) lookup, compound = `C[C@H](NC(=O)[C@@H]1CCCN1C(=O)c1cc(-c2nc3ccc([N+](=O)[O-])cc3[nH]2)ccc1O)C(=O)O` , result: 17
